# MEASURED ON: recombinant human ghrelin receptor (HEK293/GRLN) (Homo sapiens)
# Construct: expressed in transfected cells
# Sequence (Q92847 whole entry): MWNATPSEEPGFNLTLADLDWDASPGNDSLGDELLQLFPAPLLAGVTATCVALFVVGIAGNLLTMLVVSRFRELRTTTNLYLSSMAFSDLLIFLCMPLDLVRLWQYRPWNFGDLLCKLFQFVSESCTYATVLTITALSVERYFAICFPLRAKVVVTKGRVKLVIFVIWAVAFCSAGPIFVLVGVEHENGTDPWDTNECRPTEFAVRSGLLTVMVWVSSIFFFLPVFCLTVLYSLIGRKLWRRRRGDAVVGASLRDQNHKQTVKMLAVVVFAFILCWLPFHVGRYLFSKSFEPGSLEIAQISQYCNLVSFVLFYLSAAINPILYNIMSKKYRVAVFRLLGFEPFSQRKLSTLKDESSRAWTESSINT
# ASSAY PROCEDURE: Ghrelin inverse agonist potency (EC50) with IP-1 (IP-One HTRF) assay
# Assay type: cell-based
# CONDITION: ghrelin inverse agonist potency, IP-1 assay; read-out: Activity EC50
Kindly state log10 EC50 for each of the entries shown.
Hi team, quick reminder: these entries are log10 of EC50 (nM).

Would you mind telling me what log10 EC50 value was observed for CC(NC(=O)Nc1ccc2c(c1)S(=O)(=O)C(c1ccc3c(c1)CNC3)C2=O)c1ccccc1 (stereo not shown) [H1522] ?
3.28

Would you mind telling me what log10 EC50 value was observed for COc1cc(S(=O)(=O)Cc2ccc3c(c2)CCN(C)C3)ccc1NC(=O)N(O)C(C)c1cccc(Cl)c1Cl.O=C(O)C(F)(F)F (stereo not shown) [H1523] ?
0.32

Would you mind telling me what log10 EC50 value was observed for C[C@@H](NC(=O)Nc1ccc(S(=O)(=O)Cc2ccc3c(c2)C(F)CN(C)C3)cc1)c1cccc(Cl)c1Cl (stereo partly shown) [H1538] ?
0.93

Would you mind telling me what log10 EC50 value was observed for C[C@H](NC(=O)Nc1ccc(S(=O)(=O)Cc2nc3c(s2)CNC3)cc1)c1ccccc1 [H1465] ?
2.83

Would you mind telling me what log10 EC50 value was observed for CC(NC(=O)Nc1ccc(S(=O)(=O)Cc2ccc3c(c2)CNC3)cc1C(=O)O)c1ccccc1.Cl (stereo not shown) [H1486] ?
0.69

Would you mind telling me what log10 EC50 value was observed for COc1ccc(C(C)NC(=O)Nc2ccc(S(=O)(=O)Cc3ccc4c(c3)CN(C)C4)cc2)cc1Cl (stereo not shown) [H1476] ?
1.38

Would you mind telling me what log10 EC50 value was observed for CC(c1ccccc1)N(C)C(=O)Nc1ccc(S(=O)(=O)Cc2ccc3c(c2)CNC3)cc1O (stereo not shown) [H1460] ?
2.21

Would you mind telling me what log10 EC50 value was observed for CC(NC(=O)Nc1ccc(S(=O)(=O)Cc2ccc3c(c2)CNC3)cc1-c1cnn(C)c1)c1ccccc1 (stereo not shown) [H1535] ?
1.33

Would you mind telling me what log10 EC50 value was observed for CC(c1cccc(Cl)c1Cl)N(O)C(=O)Nc1ccc(S(=O)(=O)Cc2ccc3c(c2)CNC3)cc1.O=C(O)C(F)(F)F (stereo not shown) [H1509] ?
0.00

Would you mind telling me what log10 EC50 value was observed for CC(NC(=O)Nc1ccc(S(=O)(=O)Cc2ccc3c(c2)CNC3)cc1CO)c1ccccc1 (stereo not shown) [H1467] ?
1.29

Would you mind telling me what log10 EC50 value was observed for CC(NC(=O)Nc1ccc(S(=O)(=O)Cc2ccc3c(c2)CN(C)C3)cc1Cl)c1ccccc1 (stereo not shown) [H1456] ?
0.79

Would you mind telling me what log10 EC50 value was observed for COc1ccc(C(C)NC(=O)Nc2ccc(S(=O)(=O)Cc3ccc4c(c3)CNC4)cc2)cc1Cl (stereo not shown) [H1475] ?
1.28

Would you mind telling me what log10 EC50 value was observed for COc1cc(S(=O)(=O)Cc2ccc3c(c2)CCNC3)ccc1NC(=O)N(O)C(C)c1ccccc1 (stereo not shown) [H1498] ?
0.86

Would you mind telling me what log10 EC50 value was observed for CC(c1ccccc1)n1c(=O)[nH]c2ccc(S(=O)(=O)Cc3ccc4c(c3)CNC4)cc2c1=O (stereo not shown) [H1469] ?
1.41

Would you mind telling me what log10 EC50 value was observed for Cc1cc(NC(=O)NC(C)c2ccccc2)ccc1S(=O)(=O)Cc1ccc2c(c1)CNC2 (stereo not shown) [H1493] ?
0.62

Would you mind telling me what log10 EC50 value was observed for C[C@@H](NC(=O)Nc1ccc(S(=O)(=O)Cc2ccc3c(c2)C(F)CNC3)cc1)c1cccc(Cl)c1Cl (stereo partly shown) [H1537] ?
1.26
